# IC50 listing for each entry below
# TARGET_OR_SYSTEM: L. amazonensis arginase (L-ARG) (Leishmania amazonensis, UniProt O96394)
# METHOD_DESCRIPTION: Recombinant L. amazonensis arginase (L-ARG) inhibition, IC50
# Type: biochemical
# CONDITIONS: recombinant L-ARG; mean ± SEM; read-out: IC50

[
  {
    "COMPOUND": "O=C(CCc1ccc(O)c(O)c1)O[C@H](Cc1ccc(O)c(O)c1)C(=O)O [Compound 3]",
    "DISPLAY_UNIT": "µM",
    "RELATION_QUALIFIER": "=",
    "IC50": 3
  },
  {
    "COMPOUND": "O=C(CCc1ccc(O)cc1)O[C@H](Cc1ccc(O)cc1)C(=O)O [Compound 5]",
    "DISPLAY_UNIT": "µM",
    "RELATION_QUALIFIER": ">",
    "IC50": 200
  },
  {
    "COMPOUND": "O=C(/C=C/c1ccc(O)c(O)c1)Nc1cc(F)c(F)cc1C(=O)O [Compound 9]",
    "DISPLAY_UNIT": "µM",
    "RELATION_QUALIFIER": "=",
    "IC50": 5.5
  },
  {
    "COMPOUND": "O=C(CCc1ccc(O)c(O)c1)O[C@H](Cc1ccccc1)C(=O)O [Compound 2]",
    "DISPLAY_UNIT": "µM",
    "RELATION_QUALIFIER": "=",
    "IC50": 2.8
  },
  {
    "COMPOUND": "O=C(CCc1ccc(O)c(O)c1)O[C@H](Cc1ccc(O)cc1)C(=O)O [Compound 4]",
    "DISPLAY_UNIT": "µM",
    "RELATION_QUALIFIER": "=",
    "IC50": 1.9
  }
]
